experiment: Cytotoxicity assay (AlamarBlue); assay type: cell-based; conditions: human, A549 cells, A549 cell line
Threshold-based label: CC50 at 48 h under 30 µM gives T, CC50 at 48 h not under 30 µM gives F.

                                   molecule  class_name
0  O=C(NCCC1CCCCC1)c1cc(Cl)ccc1O [Compound 20]           F
1  CCCCCCNC(=O)c1cc(Cl)ccc1O [Compound 24, 5-Chloro-N-hexyl-2-hydroxybenzamide]           T
2  C[C@H](NC(=O)c1cc(Cl)ccc1O)C1CCCCC1 [Compound 17]           T
3  O=C(NCC1CCCCC1)c1cc(Cl)ccc1O [Compound 16]           F
